assay: chemical genetic growth profiling, strain panel (AID 1159580);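 further: tested at 20 µM; growth read once vehicle control cultures reached saturation at 30 °C; lower values mean less growth of the strain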; conditions: S. cerevisiae deletion strains, growth OD, locus YDR363W, strain ESC2
About 2,000 (36%) of roughly 5,500 compounds were called active. Another 18% or so got no clear call; they are omitted. No stated cut-off is given here; in the data, active means normalized growth mostly below about 0.91 (no sharp cut-off); inconclusive means no clear call, values can overlap the other calls; inactive means mostly above about 0.92. The list shows a part of the results.
Write down the outcome that applies. Available outcomes: active, inactive

In [3]: df
Out[3]:
                                   compound  classification
0  O=C(Nc1ccc([N+](=O)[O-])cc1Cl)c1cc(Cl)ccc1O        inactive

Now consider the entry below.
Just curious, what result did NC(=O)CN1CC(O)CC1=O (stereo unspecified) get here?
inactive
